Conditions: in n-butyl acetate, 323.15 K
endpoint_label: solubility (mole fraction)
Give bare numbers.

**Query** Can you share its solubility (mole fraction)? I mean this compound: COc1cccc(C(=O)O)c1OC
**Result** 0.0506

* * *

Settings: in n-butanol, 303.15 K
endpoint_label: solubility (mole fraction)
Answers are plain numbers.

**Query** Can you share its solubility (mole fraction)? I mean this compound: COc1cccc(C(=O)O)c1OC
**Result** 0.0284

* * *

Conditions: in methyl acetate, 283.15 K
endpoint_label: solubility (mole fraction)

**Query** Can you share its solubility (mole fraction)? I mean this molecule: COc1cccc(C(=O)O)c1OC
**Result** 0.0197
